Listed next: entries and their corresponding MS_h_% (remaining amount of compound after reaction, 0 minute = 100%).
method-summary: Metabolic stability test in pooled human liver microsomes
Assay type: in vitro ADME
condition-description: human liver microsomes 0.5 mg protein/mL, 1 mmol/L NADPH, 37° C., 30 minutes
Method: Using a commercially available pooled human liver microsomes, a compound of the present invention was reacted for a constant time, a remaining rate was calculated by comparing a reacted sample and an unreacted sample, thereby, a degree of metabolism in liver was assessed. […]
metric: MS_h_% (remaining amount of compound after reaction, 0 minute = 100%)

{"compound": "CCCCOc1ccc(N2CCC(c3ccc(CNC(=O)c4c(CC)nc5cc(F)ccn45)c(F)c3)CC2)cc1.Cl [Compound I-1-151]", "recorded-result": 88}
{"compound": "COc1ccn2nc(C)c(C(=O)NCc3ccc(N4CCC(c5ccc(OC(F)(F)F)cc5)CC4)c(F)c3)c2c1.Cl [Compound I-1-123]", "recorded-result": 77}
{"compound": "CCc1nc2ccc(C#N)cn2c1C(=O)NCc1ccc(N2CCN(c3ccc(OC(F)(F)F)cc3)[C@@H](C)C2)c(F)c1 [Compound I-1-36]", "recorded-result": 79}
{"compound": "CCc1nc2cc(F)ccn2c1C(=O)NCc1ccc(N2CCC(c3ccc(OC(F)(F)F)cc3)CC2)c(Cl)c1.Cl [Compound I-1-127]", "recorded-result": 93}

----------
molecules and their reported MS_h_% (remaining amount of compound after reaction, 0 minute = 100%)
method-summary: Metabolic stability test in pooled human liver microsomes
Type: in vitro ADME
condition-description: human liver microsomes 0.5 mg protein/mL, 1 mmol/L NADPH, 37° C., 30 minutes
Method: Using a commercially available pooled human liver microsomes, a compound of the present invention was reacted for a constant time, a remaining rate was calculated by comparing a reacted sample and an unreacted sample, thereby, a degree of metabolism in liver was assessed. […]
metric: MS_h_% (remaining amount of compound after reaction, 0 minute = 100%)

{"molecule": "Cc1ccn2c(C(=O)NCc3ccc(N4CCN(c5ccc(OC(F)(F)F)cc5)[C@@H](C)C4)c(F)c3)c(C)nc2c1", "recorded-result": "86%"}
{"molecule": "CCc1nc2cc(F)ccn2c1C(=O)NCc1ccc(N2CCN(c3ccc(C(F)(F)F)cn3)[C@@H](C)C2)c(F)c1.Cl [Compound I-1-114]", "recorded-result": "87%"}
{"molecule": "Cc1cc2nc(C)c(C(=O)NCc3ccc(N4CCN(c5ccc(OC(F)(F)F)cc5)[C@@H](C)C4)c(F)c3)n2cc1Cl", "recorded-result": "80%"}
{"molecule": "CCc1nc2cc(F)ccn2c1C(=O)NCc1ccc(N2CCN(c3ccc(OC(F)(F)F)cc3)[C@@H](C)C2)c(F)c1F.Cl", "recorded-result": "90%"}
{"molecule": "Cc1nc2ccc(F)cn2c1C(=O)NCc1ccc(N2CCN(c3ccc(OC(F)(F)F)cc3)[C@@H](C)C2)c(F)c1", "recorded-result": "93%"}
{"molecule": "CCc1nc2cc(F)ccn2c1C(=O)NCc1ccc(-n2cc3c(n2)CN(c2ccc(OC(F)(F)F)cc2)C3)c(F)c1.Cl", "recorded-result": "69%"}
{"molecule": "CCc1nc2ccc(Cl)cn2c1C(=O)NCc1cc(F)c(N2CCN(c3ccc(OC(F)(F)F)cc3)[C@@H](C)C2)c(F)c1.Cl", "recorded-result": "66%"}
{"molecule": "Cc1nc2ccc(Cl)cn2c1C(=O)NCc1cc(F)c2c(c1)CCN(C1CC=C(OC(F)(F)F)CC1)C2.Cl (centres unmarked)", "recorded-result": "77.5%"}
{"molecule": "Cc1nc2ccc(F)cn2c1C(=O)NCc1ccc(N2CCN(c3ccc(C(F)(F)F)cn3)CC2)c(C(F)(F)F)c1", "recorded-result": "81.8%"}
{"molecule": "Cc1nc2ccc(Cl)cn2c1C(=O)NCc1ccc(N2C[C@H](C)N(c3ccc(OC(F)(F)F)cc3)C[C@H]2C)c(F)c1", "recorded-result": "89%"}
{"molecule": "Cl.O=C(NCc1ccc(OC2CCC(Oc3ccc(OC(F)(F)F)cc3)CC2)c(F)c1)c1cnc2ccc(Cl)cn12 (centres unmarked)", "recorded-result": "65.4%"}
{"molecule": "Cc1nc2ccc(Br)cn2c1C(=O)NCc1ccc(N2CCN(c3ccc(C(F)(F)F)cn3)CC2)c(F)c1", "recorded-result": "71.7%"}
{"molecule": "CCc1nc2ccc(Cl)cn2c1C(=O)NCc1cc(F)c(N2CCC(c3ccc(OC(F)(F)F)cc3)CC2)c(F)c1.Cl", "recorded-result": "83%"}
{"molecule": "C[C@H]1CN(c2ccc(CNC(=O)c3c(C(F)(F)F)nc4ccc(Cl)cn34)cc2F)CCN1c1ccc(OC(F)(F)F)cc1 [Compound I-1-29]", "recorded-result": "89%"}
{"molecule": "Cc1ccn2nc(C)c(C(=O)NCc3ccc(N4CCN(c5ccc(OC(F)(F)F)cc5)[C@@H](C)C4)c(F)c3)c2c1.Cl", "recorded-result": "84%"}
{"molecule": "[2H]c1c(C([2H])([2H])[2H])c([2H])n2c(C(=O)NCc3ccc(S(F)(F)(F)(F)F)cc3)c(C)nc2c1[2H]", "recorded-result": "71.3%"}
{"molecule": "Cc1ccn2c(C(=O)NCc3ccc(C4CCN(c5ccc(OC(F)(F)F)cc5)CC4)cc3F)c(C)nc2c1", "recorded-result": "86%"}
{"molecule": "Cc1nc2ccc(F)cn2c1C(=O)NCc1ccc(N2CCN(c3ccc(OC(F)(F)F)cc3)C(C)(C)C2)c(F)c1", "recorded-result": "85%"}
{"molecule": "CCc1nc2ccc(Cl)cn2c1C(=O)NCc1ccc(-n2ccc(C(F)(F)F)n2)cc1", "recorded-result": "77%"}
{"molecule": "Cc1nc2ccc(Cl)cn2c1C(=O)NCc1ccc(N2CCN(c3ccc(OC(F)(F)F)cc3)C[C@H]2C)c(F)c1", "recorded-result": "76%"}
{"molecule": "CCc1nc2ccc(Cl)cn2c1C(=O)NCc1ccc(C2CCN(c3ccc(OCC4CC4)cc3)CC2)c(F)c1.Cl", "recorded-result": "71%"}
{"molecule": "CCc1nc2ccc(Cl)cn2c1C(=O)NCc1ccc(N2CCN(c3ccc(OC(F)(F)F)cc3)[C@@H](C)C2)c(F)c1F.Cl", "recorded-result": "67%"}
{"molecule": "CCc1nc2cc(F)ccn2c1C(=O)NCc1ccc(N2CCN(c3ccc(OCC(F)(F)F)nc3)[C@@H](C)C2)c(F)c1.Cl", "recorded-result": "87%"}
{"molecule": "Cc1ccn2c(C(=O)NCc3ccc(N4CCC(c5ccc(OC(F)(F)F)cc5)CC4)c(Cl)c3)c(C)nc2c1.Cl", "recorded-result": "98%"}
{"molecule": "CCc1nc2cc(F)ccn2c1C(=O)NCc1ccc(N2CCN(c3ccc(OC(F)(F)F)cc3)[C@@H](C)C2)c(F)c1", "recorded-result": "90%"}
{"molecule": "CCc1nc2cc(F)ccn2c1C(=O)NCc1ccc(N2CCN(c3ccc(OC(F)(F)F)cc3F)[C@@H](C)C2)c(F)c1.Cl", "recorded-result": "97%"}

----------
method-summary: Metabolic stability test in pooled human liver microsomes
Assay type: in vitro ADME
condition-description: human liver microsomes 0.5 mg protein/mL, 1 mmol/L NADPH, 37° C., 30 minutes
Reported MS_h_% (remaining amount of compound after reaction, 0 minute = 100%) values for the following molecules.
metric: MS_h_% (remaining amount of compound after reaction, 0 minute = 100%)

{"molecule": "CCOc1ccc(N2CCN(c3ccc(CNC(=O)c4c(CC)nc5ccc(Cl)cn45)cc3F)C[C@@H]2C)cc1", "recorded-result": 69}
{"molecule": "CCc1nc2ccc(Cl)cn2c1C(=O)NCc1ccc(C2=CCC(c3ccc(OC(F)(F)F)cc3)CC2)c(F)c1.Cl (centres unmarked)", "recorded-result": 83}
{"molecule": "CCc1nc2cc(F)ccn2c1C(=O)NCc1ccc(N2CCN(c3ccc(OCC(F)(F)F)nc3)[C@@H](CC)C2)c(F)c1.Cl", "recorded-result": 90.3}
{"molecule": "CCOc1ccc(N2CCN(c3ccc(CNC(=O)c4c(CC)nc5cc(F)ccn45)cc3F)C[C@@H]2C)cn1.Cl", "recorded-result": 71}
{"molecule": "Cc1ccn2c(C(=O)NCc3ccc(N4CCN(c5ccc(OC(F)(F)F)cc5)[C@@H](C)C4)c(C(F)(F)F)c3)c(C)nc2c1", "recorded-result": 59.2}
{"molecule": "Cc1ccn2c(C(=O)NCc3ccc(Oc4ccc(C(F)(F)F)cc4)cc3)c(C)nc2c1", "recorded-result": 80.9}
{"molecule": "CCc1nc2ccc(Cl)cn2c1C(=O)NCc1ccc([C@@H]2CO[C@@H](c3ccc(OC(F)(F)F)cc3)CO2)c(F)c1", "recorded-result": 77}
{"molecule": "CCc1nc2ccc(Cl)cn2c1C(=O)NCc1ccc(N2CCN(c3ccc(OCC(C)(C)C)cc3)[C@@H](C)C2)c(F)c1.Cl", "recorded-result": 60}
{"molecule": "CCc1nc2cc(F)ccn2c1C(=O)NCc1ccc(N2CC=C(c3ccc(OC(F)(F)F)cc3)CC2)c(F)c1.Cl", "recorded-result": 86}
{"molecule": "COc1ccn2nc(C)c(C(=O)NCc3ccc(N4CCN(c5ccc(OC(F)(F)F)cc5)[C@@H](C)C4)c(F)c3F)c2c1.Cl", "recorded-result": 74}
{"molecule": "Cc1ccn2c(C(=O)NCc3ccc(C4CCN(c5ccc(OC(F)(F)F)cc5)CC4)c(F)c3)c(C(F)(F)F)nc2c1", "recorded-result": 71}
{"molecule": "Cc1ccn2c(C(=O)NCc3ccc(N4CCN(C5CN(CC(F)(F)F)C5)[C@@H](C)C4)c(F)c3)c(C)nc2c1", "recorded-result": 77}
{"molecule": "Cc1ccn2c(C(=O)NCc3ccc(N4CCC(c5ccc(OC(F)(F)F)cc5)CC4)cc3F)c(C)nc2c1.Cl", "recorded-result": 94}
{"molecule": "Cc1cn2c(C(=O)NCc3ccc(N4CCN(c5ccc(OC(F)(F)F)cc5)[C@@H](C)C4)c(F)c3)c(C)nc2s1", "recorded-result": 72.6}
{"molecule": "CCc1nc2ccc(Cl)cn2c1C(=O)NCc1ccc(N2C[C@H](C)N(c3ccc(OCC(F)(F)F)nc3)C[C@H]2C)c(F)c1.Cl", "recorded-result": 65}
{"molecule": "Cc1nc2ccc(Cl)cn2c1C(=O)NCc1ccc(N2C[C@H](C)N(c3ccc(OCC(F)(F)F)nc3)C[C@H]2C)c(F)c1.Cl", "recorded-result": 91}
{"molecule": "Cc1ccn2c(C(=O)NCc3ccc(C4CCN(C5CN(CC(F)(F)F)C5)CC4)c(F)c3)c(C)nc2c1", "recorded-result": 71.9}
{"molecule": "Cc1ccn2nc(C(F)(F)F)c(C(=O)NCc3ccc(N4CCN(c5ccc(OC(F)(F)F)cc5)[C@@H](C)C4)c(F)c3)c2c1.Cl", "recorded-result": 77}
{"molecule": "Cc1nc2ccc(Cl)cn2c1C(=O)NCc1ccc(N2CCN(c3ccc(OC(F)(F)F)cc3)[C@H](C)C2)c(F)c1.Cl", "recorded-result": 91}
{"molecule": "CCc1nc2cc(F)ccn2c1C(=O)NCc1cc(F)c(N2CCN(c3ccc(OC(F)(F)F)cc3)[C@@H](C)C2)c(F)c1.Cl", "recorded-result": 91}
{"molecule": "COc1ccn2nc(C)c(C(=O)NCc3cc(F)c(N4CCN(c5ccc(OC(F)(F)F)cc5)[C@@H](C)C4)c(F)c3)c2c1.Cl", "recorded-result": 80}
{"molecule": "COc1ccn2nc(C)c(C(=O)NCc3ccc(N4CCC(c5ccc(OC(F)(F)F)cc5)CC4)cc3)c2c1", "recorded-result": 87.1}
{"molecule": "Cc1cn2c(C(=O)NCc3ccc(C4CCN(c5ccc(OC(F)(F)F)cc5)CC4)c(F)c3)c(C)nc2s1", "recorded-result": 73.9}
{"molecule": "Cc1cn2c(C(=O)NCc3ccc(N4CCN(c5ccc(C(F)(F)F)cn5)CC4)c(C(F)(F)F)c3)c(C)nc2cc1Cl", "recorded-result": 79.3}
{"molecule": "Cc1ccn2c(C(=O)NCc3ccc(N4CCN(c5ccc(OC(F)(F)F)cc5)C(C)(C)C4)c(F)c3)c(C)nc2c1", "recorded-result": 82}
{"molecule": "CCc1nc2cc(F)ccn2c1C(=O)NCc1cc(F)c(N2CCN(c3ccc(OC(F)(F)F)cc3)[C@@H](C)C2)cc1F.Cl", "recorded-result": 86}
